# target desc: T1, biotinylated cyno IL-33 (cynomolgus monkey, UniProt A0A2K5W3I1 112-269, biotin-labeled with EZ-LINK NHS-PEG4-Biotin)
# T1 construct: also called biotin-cyIL-33
# T1 sequence: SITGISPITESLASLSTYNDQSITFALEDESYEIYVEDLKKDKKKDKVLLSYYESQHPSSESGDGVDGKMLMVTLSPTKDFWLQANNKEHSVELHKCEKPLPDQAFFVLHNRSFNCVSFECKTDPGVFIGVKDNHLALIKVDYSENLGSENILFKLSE
# experiment: competitive ELISA, biotin-cyIL-33 to coated hST2-Fc
property name: Maximum Blocking (%)

binder	property name	unit of measure	reported result
H4H9671P (antibody, V domains shown) VH: EVQLVESGGGLVQPGGSLRLSCAASGFTLRSYFMTWVRQVPGKGLEGVSAISGISGGTYYTDSVKGRFTISRDNSKNTLFLQMNSLRAEDTAVYFCARTVYSSSYYGGFQHWGQGTLVTVSS VL: DIQMTQSPSSVSVSVGDRVTITCRASQGISSWLAWYQQKPGKAPKLLIYVASSLQSGVPSRFSGSGSGTDFTLTISSLQPEDFATYYCQQTNSFPLTFGGGTKVEIK	Maximum Blocking	%	40
H4H9667P (antibody, V domains shown) VH: EVQLVESGGGLVQPGGSLRLSCAASGFTFSTYSMHWVRQAPGKGLEYVSTINNNGDTTYYADSVKGRFTISRDNSKNTLYLQLGSLRPEDMAVYYCARQTYTSSWYGGFDSWGQGTLVTVSS VL: DIQMTQSPSSVSASVGDRVTITCRASQGITSWLAWYQQKPGKAPKLLIYAASNLQSGVPSRFSGSGSGTDFTLTITSLQPEDFATYYCQQANSLPFTFGPGTKVDIK	Maximum Blocking	%	7

Data credit: patent US20190092852A1
